- Tested on: Human immunodeficiency virus 1
- assayMethodText: Antiviral activity against HIV-1 Bal infected in human MAGI-CCR5 cells assessed as reduction in viral infection after 48 hrs by fluorescence based beta-galactosidase reporter gene assay
- Format: functional, organism-based
- experimentalSetup: Human immunodeficiency virus 1, Bal, MAGI-CCR5, 48 h
Values of IC50 strictly less than 4 µM map to label 1, and values of at least 4 µM map to label 0.

Take a look at these entries with their results.
compoundSmiles | cat
CC(C)(C)OC(=O)Nc1cccc(Cn2ccc3ccc(-c4ccc5ccn(Cc6cccc(C(=O)O)c6)c5c4)cc32)c1 | label 1
COc1cccc(CN(C)c2cccc(-c3ccc4ccn(Cc5cccc(C(=O)O)c5)c4c3)c2)c1 | label 1

*Q* Here's an entry: COc1cccc(Cn2ccc3ccc(-c4ccc5c(C)cn(Cc6cccc(C(=O)O)c6)c5c4)cc32)c1 . Is its IC50 below 4 µM?
*A* label 0
